// reported Decomposition efficiency of glycitin family in roasted soy flour for each item listed
System: Crude diglycosidase
Assay: Examination of temperature in the conversion into isoflavone aglycons by diglycosidase using soybean materials
Type: biochemical, Penicillium multicolor IAM7153
Parameters: concentration or dose not given beside the values
Conditions: 65 °C; heat treatment of enzyme: yes; 6 h
attribute.measured: Decomposition efficiency of glycitin family in roasted soy flour (%)

INSERT INTO assay_data (substance_smiles, assayed_system, reading_unit, experimental_result) VALUES
  ('COc1cc2c(=O)c(-c3ccc(O)cc3)coc2cc1O', 'Crude diglycosidase', '%', 10.4),
  ('COc1cc2c(=O)c(-c3ccc(O)cc3)coc2cc1O[C@@H]1O[C@H](CO)[C@@H](O)[C@H](O)[C@H]1O', 'Crude diglycosidase', '%', 50.3),
  ('COc1cc2c(=O)c(-c3ccc(O)cc3)coc2cc1O[C@@H]1O[C@H](COC(C)=O)[C@@H](O)[C@H](O)[C@H]1O', 'Crude diglycosidase', '%', 39.3);

* * *

Decomposition efficiency of glycitin family in soymilk overview
System: Crude diglycosidase
Experiment: Examination of pH in the conversion into isoflavone aglycons by diglycosidase using soybean materials
Format: biochemical, Penicillium multicolor IAM7153
Conditions: pH6.2, heat treatment of enzyme no, reaction time 0 h, 55° C.
attribute.measured: Decomposition efficiency of glycitin family in soymilk

INSERT INTO results (substance_smiles, assayed_system, experimental_result) VALUES
  ('COc1cc2c(=O)c(-c3ccc(O)cc3)coc2cc1O[C@@H]1O[C@H](CO)[C@@H](O)[C@H](O)[C@H]1O', 'Crude diglycosidase', 50.7),
  ('COc1cc2c(=O)c(-c3ccc(O)cc3)coc2cc1O', 'Crude diglycosidase', 6.2),
  ('COc1cc2c(=O)c(-c3ccc(O)cc3)coc2cc1O[C@@H]1O[C@H](COC(=O)CC(=O)O)[C@@H](O)[C@H](O)[C@H]1O', 'Crude diglycosidase', 43.2);

* * *

Test system: Purified diglycosidase
Assay: Influence of free glucose on diglycosidase activity
Format: biochemical, Penicillium multicolor IAM7153
Conditions: Glucose concentration 2 %; isolated aglycon amount at glucose 0% and 0.5 hour = 100%
attribute.measured: Isolation of isoflavone aglycons by diglycosidase in presence of glucose (%)

INSERT INTO measurements (compound, experimental_result) VALUES
  ('CC(=O)OC[C@H]1O[C@@H](Oc2cc(O)c3c(=O)c(-c4ccc(O)cc4)coc3c2)[C@H](O)[C@@H](O)[C@@H]1O [acetylgenistin, 6″-O-acetylgenistin]', 104.1),
  ('COc1cc2c(=O)c(-c3ccc(O)cc3)coc2cc1O[C@@H]1O[C@H](COC(C)=O)[C@@H](O)[C@H](O)[C@H]1O [acetylglycitin, 6″-O-acetylglycitin]', 100.9),
  ('O=C(O)CC(=O)OC[C@H]1O[C@@H](Oc2ccc3c(=O)c(-c4ccc(O)cc4)coc3c2)[C@H](O)[C@@H](O)[C@@H]1O [malonyldaidzin, 6″-O-malonyldaidzin]', 125.3),
  ('O=c1c(-c2ccc(O)cc2)coc2cc(O[C@@H]3O[C@H](CO)[C@@H](O)[C@H](O)[C@H]3O)ccc12 [daidzin]', 128.1),
  ('O=C(O)CC(=O)OC[C@H]1O[C@@H](Oc2cc(O)c3c(=O)c(-c4ccc(O)cc4)coc3c2)[C@H](O)[C@@H](O)[C@@H]1O [malonylgenistin, 6″-O-malonylgenistin]', 152),
  ('COc1cc2c(=O)c(-c3ccc(O)cc3)coc2cc1O[C@@H]1O[C@H](CO)[C@@H](O)[C@H](O)[C@H]1O [glycitin]', 96),
  ('COc1cc2c(=O)c(-c3ccc(O)cc3)coc2cc1O[C@@H]1O[C@H](COC(=O)CC(=O)O)[C@@H](O)[C@H](O)[C@H]1O [malonylglycitin, 6″-O-malonylglycitin]', 121.4),
  ('CC(=O)OC[C@H]1O[C@@H](Oc2ccc3c(=O)c(-c4ccc(O)cc4)coc3c2)[C@H](O)[C@@H](O)[C@@H]1O [acetyldaidzin, 6″-O-acetyldaidzin]', 108.1);
